# Test system: A. baumannii ATCC 19606
# test_description: microbe, parasite or virus in culture
# setup_conditions: Acinetobacter baumannii, ATCC19606, Corning NBS; MHB +T80; n = 2
parameter_measured: MIC (mg/L)
Dear colleague, please return just the value in mg/L, with no unit written.

Q: Please give the measured MIC for this compound: CO[C@H]1/C=C/O[C@@]2(C)Oc3c(C)c(O)c4c(O)c(c(/C=N/N5CCN(C)CC5)c(O)c4c3C2=O)NC(=O)/C(C)=C\C=C\[C@H](C)[C@H](O)[C@@H](C)[C@@H](O)[C@@H](C)[C@H](OC(C)=O)[C@@H]1C
A: 2

Q: Please give the measured MIC for this compound: COc1cc(Cc2cnc(N)nc2N)cc(OC)c1OC
A: 64

---

# Tested on: K. pneumoniae ATCC 13883
# test_description: microbe, parasite or virus in culture
# setup_conditions: Klebsiella pneumoniae, ATCC13883, Corning PS; MHB -T80; n = 2
parameter_measured: MIC

Q: Lab note: need MIC with K. pneumoniae ATCC 13883 for entry Cc1onc(-c2ccccc2)c1C(=O)N[C@@H]1C(=O)N2[C@@H]1SC(C)(C)[C@@H]2C(=O)O [Oxacillin, oxacillin] , please look it up.
A: > 64 µg/mL

Q: Lab note: need MIC with K. pneumoniae ATCC 13883 for entry CC1(C)S[C@@H]2[C@H](NC(=O)Cc3ccccc3)C(=O)N2[C@H]1C(=O)O [Penicillin G, penicillin G] , please look it up.
A: > 64 µg/mL

Q: Lab note: need MIC with K. pneumoniae ATCC 13883 for entry CO[C@H]1/C=C/O[C@@]2(C)Oc3c(C)c(O)c4c(O)c(c(/C=N/N5CCN(C)CC5)c(O)c4c3C2=O)NC(=O)/C(C)=C\C=C\[C@H](C)[C@H](O)[C@@H](C)[C@@H](O)[C@@H](C)[C@H](OC(C)=O)[C@@H]1C [Rifampin, rifampin] , please look it up.
A: 8 to 16 µg/mL

Q: Lab note: need MIC with K. pneumoniae ATCC 13883 for entry COc1cc(Cc2cnc(N)nc2N)cc(OC)c1OC [Trimethoprim, trimethoprim] , please look it up.
A: 1 to 8 µg/mL

---

# Test system: P. aeruginosa ATCC 10145
# test_description: microbe, parasite or virus in culture
# setup_conditions: Pseudomonas aeruginosa, ATCC10145, Corning TC; MHB +T80; n = 2
parameter_measured: MIC

Q: Please give the measured MIC for this molecule: CC1(C)S[C@@H]2[C@H](NC(=O)Cc3ccccc3)C(=O)N2[C@H]1C(=O)O
A: > 64 mg/L

Q: Please give the measured MIC for this molecule: O=C(O)c1cn(C2CC2)c2cc(N3CCNCC3)c(F)cc2c1=O
A: 0.25 to 0.5 mg/L

Q: Please give the measured MIC for this molecule: CO[C@H]1/C=C/O[C@@]2(C)Oc3c(C)c(O)c4c(O)c(c(/C=N/N5CCN(C)CC5)c(O)c4c3C2=O)NC(=O)/C(C)=C\C=C\[C@H](C)[C@H](O)[C@@H](C)[C@@H](O)[C@@H](C)[C@H](OC(C)=O)[C@@H]1C
A: 32 mg/L

Q: Please give the measured MIC for this molecule: Cc1onc(-c2ccccc2)c1C(=O)N[C@@H]1C(=O)N2[C@@H]1SC(C)(C)[C@@H]2C(=O)O
A: > 64 mg/L

Q: Please give the measured MIC for this molecule: COc1cc(Cc2cnc(N)nc2N)cc(OC)c1OC
A: > 64 mg/L
